Source: patent US20240317708A1

Hi there, I'd appreciate the recorded logD for every entry that follows.
protocol: Log D shake flask method (octanol / PBS pH 7.4, HPLC)
Format: physicochemical
test parameters: octanol/phosphate-buffered saline (PBS); octanol / PBS pH 7.4, shake flask

Inquiry: Bench note: what logD did O=C(/C=C/CC[C@H](NC(=O)c1ccc2c(c1)NCCC2)C(=O)Nc1cccn(CC(=O)NC23CC(C2)C3)c1=O)NC1CCCCC1 show?
Reply text: 1 to 3

Inquiry: Bench note: what logD did COC(=O)/C=C/CC[C@H](NC(=O)c1cccnn1)C(=O)Nc1cccn(CC(=O)NC2C3CC4CC(C3)CC2C4)c1=O (stereo partly shown) show?
Reply text: 1 to 3

Inquiry: Bench note: what logD did COC(=O)/C=C/CC[C@H](NC(=O)c1oc2ccccc2c1C)C(=O)Nc1cccn(CC(=O)NC2C3CC4CC2CC(F)(C4)C3)c1=O (stereo partly shown) show?
Reply text: 3 to 5

Inquiry: Bench note: what logD did COC(=O)/C=C/CC[C@H](NC(=O)c1csnn1)C(=O)Nc1cccn(CC(=O)NC23CC(C2)C3)c1=O show?
Reply text: < 1

Inquiry: Bench note: what logD did COC(=O)/C=C/CC[C@H](NC(=O)c1oc2ccccc2c1C)C(=O)Nc1cccn(CC(=O)NC2(C#N)C3CC4CC(C3)CC2C4)c1=O (stereo partly shown) show?
Reply text: 3 to 5

Inquiry: Bench note: what logD did COC(=O)/C=C/CC[C@H](NC(=O)c1oc2ccccc2c1C)C(=O)Nc1cccn(CC(=O)NC23CC4CC(CC(Br)(C4)C2)C3)c1=O show?
Reply text: 3 to 5

Inquiry: Bench note: what logD did COC(=O)/C=C/CC[C@H](NC(=O)c1oc2ccccc2c1C)C(=O)Nc1cccn(CC23CC4CC(CC(O)(C4)C2)C3)c1=O show?
Reply text: 1 to 3

Inquiry: Bench note: what logD did COC(=O)/C=C/CC[C@H](NC(=O)c1sc(C(F)(F)F)nc1C)C(=O)Nc1cccn(CC(=O)NC23CC4(C)CC(C)(CC(C)(C4)C2)C3)c1=O show?
Reply text: 3 to 5

Inquiry: Bench note: what logD did CCOC(=O)/C=C/CC[C@H](NC(=O)c1oc2ccccc2c1C)C(=O)Nc1cccn(CC(=O)NC2C3CC4CC(C3)CC2C4)c1=O (stereo partly shown) show?
Reply text: 3 to 5

Inquiry: Bench note: what logD did COC(=O)/C=C/CC[C@H](NC(=O)C1CCc2ccccc2C1)C(=O)Nc1cccn(CC(=O)NC2C3CC4CC2CC(C(=O)N(C)C)(C4)C3)c1=O (stereo partly shown) show?
Reply text: 1 to 3

Inquiry: Bench note: what logD did COC(=O)/C=C/CC[C@H](NC(=O)c1snnc1C=O)C(=O)Nc1cccn(CC(=O)NC2(C(=O)O)C3CC4CC2CC(C(F)(F)F)(C4)C3)c1=O (stereo partly shown) show?
Reply text: 1 to 3

Inquiry: Bench note: what logD did COC(=O)/C=C/CC[C@H](NC(=O)c1cncc(C(=O)O)c1)C(=O)Nc1cccn(CC(=O)NC2C3CC4CC(C3)CC2C4)c1=O (stereo partly shown) show?
Reply text: 3 to 5

Inquiry: Bench note: what logD did COC(=O)/C=C/CC[C@H](NC(=O)c1cc(Cl)sc1Cl)C(=O)Nc1cccn(CC(=O)N[C@@H]2C[C@@H]3CC[C@H]2C3)c1=O show?
Reply text: 3 to 5

----------
Hi there, I'd appreciate the recorded logD for every entry that follows.
protocol: Log D shake flask method (octanol / PBS pH 7.4, HPLC)
Format: physicochemical
test parameters: octanol/phosphate-buffered saline (PBS); octanol / PBS pH 7.4, shake flask

Inquiry: Bench note: what logD did COC(=O)/C=C/CC[C@H](NC(=O)c1cc(Cl)c(Cl)s1)C(=O)Nc1cccn(CC(=O)NC2C3CC4CC(C3)CC2C4)c1=O (stereo partly drawn) show?
Reply text: 3 to 5

Inquiry: Bench note: what logD did COC(=O)/C=C/CC[C@H](NC(=O)c1cnnn1C)C(=O)Nc1cccn(CC(=O)NC2C3CC4CC(C3)CC2C4)c1=O (stereo partly drawn) show?
Reply text: 1 to 3

Inquiry: Bench note: what logD did COC(=O)/C=C/CC[C@H](NC(=O)c1oc2ccccc2c1C)C(=O)Nc1cccn(CC(=O)NC23CCC(CC2)C3)c1=O show?
Reply text: 1 to 3

Inquiry: Bench note: what logD did COC(=O)/C=C/CC[C@H](NC(=O)c1oc2ccccc2c1C)C(=O)Nc1cccn(CC(=O)NC2C3CC4CC(C3)CC2C4)c1=O (stereo partly drawn) show?
Reply text: 3 to 5

Inquiry: Bench note: what logD did CCN(CC)C(=O)/C=C/CC[C@H](NC(=O)c1coc(C(C)=O)n1)C(=O)Nc1cccn(CC(=O)NC23CC(C2)C3)c1=O show?
Reply text: < 1

Inquiry: Bench note: what logD did COC(=O)/C=C/CC[C@H](NC(=O)c1ccnnc1)C(=O)Nc1cccn(CC(=O)NC2C3CC4CC(C3)CC2C4)c1=O (stereo partly drawn) show?
Reply text: 1 to 3

----------
experimental target: recombinant human transglutaminase 2 (Homo sapiens)
Sequence (P21980 whole entry): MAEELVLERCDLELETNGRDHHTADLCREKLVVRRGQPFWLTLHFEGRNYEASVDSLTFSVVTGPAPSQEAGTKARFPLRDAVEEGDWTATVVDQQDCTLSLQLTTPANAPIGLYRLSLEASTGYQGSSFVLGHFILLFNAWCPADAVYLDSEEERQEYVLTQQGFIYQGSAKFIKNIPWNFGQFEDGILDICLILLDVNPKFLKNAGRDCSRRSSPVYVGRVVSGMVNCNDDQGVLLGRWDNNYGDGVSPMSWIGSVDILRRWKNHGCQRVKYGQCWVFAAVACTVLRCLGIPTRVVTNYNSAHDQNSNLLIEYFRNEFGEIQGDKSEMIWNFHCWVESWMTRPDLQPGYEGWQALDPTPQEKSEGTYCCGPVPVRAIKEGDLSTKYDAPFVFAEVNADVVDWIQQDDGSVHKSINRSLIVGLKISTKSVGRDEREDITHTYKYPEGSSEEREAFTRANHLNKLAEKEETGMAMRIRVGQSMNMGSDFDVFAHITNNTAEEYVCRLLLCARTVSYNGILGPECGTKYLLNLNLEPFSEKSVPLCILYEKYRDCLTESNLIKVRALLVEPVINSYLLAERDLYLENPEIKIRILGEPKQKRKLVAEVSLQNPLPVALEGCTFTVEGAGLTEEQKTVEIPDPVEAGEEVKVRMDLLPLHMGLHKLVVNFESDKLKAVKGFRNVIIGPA
protocol: Transglutaminase assay (dansylcadaverine incorporation into dimethylcasein, DCC-assay)
test parameters: recombinant human TG2 10 nM, dansylcadaverine/dimethylcasein, 37° C.
pIC50: −log10 of the molar value.
Hi there, I'd appreciate the recorded pIC50 for every entry that follows.

Inquiry: Bench note: what pIC50 did COC(=O)/C=C/CC[C@H](NC(=O)c1snnc1C1CC1)C(=O)Nc1cccn(CC(=O)NC23CC(C2)C3)c1=O show?
Reply text: 6.60 to 7.60

Inquiry: Bench note: what pIC50 did COC(=O)/C=C/CC[C@H](NC(=O)c1[nH]c2ccccc2c1C)C(=O)Nc1cccn(CC(=O)NC2C3CC4CC(C3)CC2C4)c1=O (stereo partly shown) show?
Reply text: > 7.60

Inquiry: Bench note: what pIC50 did Cc1cn2c(C(=O)N[C@@H](CC/C=C/C(=O)NC(C)C)C(=O)Nc3cccn(CC(=O)NC45CC(C4)C5)c3=O)csc2n1 show?
Reply text: 5.82 to 6.60

Inquiry: Bench note: what pIC50 did COC(=O)/C=C/CC[C@H](NC(=O)c1oc2ccccc2c1C)C(=O)Nc1cccn(CC(=O)NC2(C(=O)OC)C3CC4CC(C3)CC2C4)c1=O (stereo partly shown) show?
Reply text: 6.60 to 7.60

Inquiry: Bench note: what pIC50 did COC(=O)/C=C/CC[C@H](NC(=O)c1oc2ccccc2c1C)C(=O)Nc1cccn(CC(=O)NC23CC4CC(CC(C4)C2)C3)c1=O show?
Reply text: 6.60 to 7.60

Inquiry: Bench note: what pIC50 did COC(=O)/C=C/CC[C@H](NC(=O)c1oc2ccccc2c1C)C(=O)Nc1cccn(CC(=O)NC(C)C23CC4CC(CC(C4)C2)C3)c1=O (stereo partly shown) show?
Reply text: 6.60 to 7.60

Inquiry: Bench note: what pIC50 did Cc1cc(C(=O)N[C@@H](CC/C=C/C(=O)Nc2ccccc2)C(=O)Nc2cccn(CC(=O)NC34CC(C3)C4)c2=O)c(C)o1 show?
Reply text: 6.60 to 7.60

Inquiry: Bench note: what pIC50 did CCOC(=O)/C=C/CC[C@H](NC(=O)c1oc2ccccc2c1C)C(=O)Nc1cccn(CC(=O)NC2C3CC4CC(C3)CC2C4)c1=O (stereo partly shown) show?
Reply text: > 7.60

Inquiry: Bench note: what pIC50 did COC(=O)/C=C/CC[C@H](NC(=O)c1cncc(C(=O)OC)c1)C(=O)Nc1cccn(CC(=O)NC2C3CC4CC(C3)CC2C4)c1=O (stereo partly shown) show?
Reply text: 6.60 to 7.60

Inquiry: Bench note: what pIC50 did COC(=O)/C=C/CC[C@H](NC(=O)c1coc(S(N)(=O)=O)c1)C(=O)Nc1cccn(CC(=O)NC2C3CC4CC2CC(NC(C)=O)(C4)C3)c1=O (stereo partly shown) show?
Reply text: 5.82 to 6.60

Inquiry: Bench note: what pIC50 did COC(=O)/C=C/CC[C@H](NC(=O)c1oc2ccccc2c1C)C(=O)Nc1cccn(CC23CC4CC(CC(Br)(C4)C2)C3)c1=O show?
Reply text: 5.82 to 6.60

Inquiry: Bench note: what pIC50 did COC(=O)/C=C/CC[C@H](NC(=O)c1cn[nH]n1)C(=O)Nc1cccn(CC(=O)NC2C3CC4CC(C3)CC2C4)c1=O (stereo partly shown) [III-101] show?
Reply text: 6.60 to 7.60

Inquiry: Bench note: what pIC50 did COC(=O)/C=C/CC[C@H](NC(=O)c1ncc(OC)o1)C(=O)Nc1cccn(CCC(=O)NC2C3CC4CC(C3)CC2C4)c1=O (stereo partly shown) show?
Reply text: 5.82 to 6.60

----------
experimental target: recombinant human transglutaminase 2 (Homo sapiens)
protocol: Transglutaminase assay (dansylcadaverine incorporation into dimethylcasein, DCC-assay)
test parameters: recombinant human TG2 10 nM, dansylcadaverine/dimethylcasein, 37° C.
property measured: IC50

Inquiry: Request body: readout IC50, system recombinant human transglutaminase 2 (Homo sapiens), query O=C(/C=C/CC[C@H](NC(=O)c1nc(Br)cs1)C(=O)Nc1cccn(CC(=O)NC23CC(C2)C3)c1=O)NCc1ccccc1 [III-155] . Return the value.
Reply text: 25 to 250 nM

Inquiry: Request body: readout IC50, system recombinant human transglutaminase 2 (Homo sapiens), query CN(C)C(=O)/C=C/CC[C@H](NC(=O)c1cncn1C)C(=O)Nc1cccn(CC(=O)NC2C3CC4CC(C3)CC2C4)c1=O (stereo partly shown) [III-76] . Return the value.
Reply text: 25 to 250 nM

Inquiry: Request body: readout IC50, system recombinant human transglutaminase 2 (Homo sapiens), query COC(=O)/C=C/CC[C@H](NC(=O)c1cncn1C)C(=O)Nc1cccn(CC(=O)N[C@@H]2C[C@H]3CC[C@@H]2C3)c1=O [III-62] . Return the value.
Reply text: < 25 nM

Inquiry: Request body: readout IC50, system recombinant human transglutaminase 2 (Homo sapiens), query COC(=O)/C=C/CC[C@H](NC(=O)c1ccnn1C)C(=O)Nc1cccn(CC(=O)N[C@@H]2C[C@@H]3CC[C@H]2C3)c1=O [III-117] . Return the value.
Reply text: < 25 nM

Inquiry: Request body: readout IC50, system recombinant human transglutaminase 2 (Homo sapiens), query COC(=O)/C=C/CC[C@H](NC(=O)c1sc(C(F)(F)F)nc1C)C(=O)Nc1cccn(CC(=O)NC2C3CC4CC(C3)CC2C4)c1=O (stereo partly shown) [III-14] . Return the value.
Reply text: < 25 nM

Inquiry: Request body: readout IC50, system recombinant human transglutaminase 2 (Homo sapiens), query COC(=O)/C=C/CC[C@H](NC(=O)[C@@H]1CCCCN1)C(=O)Nc1cccn(CC(=O)NC2C3CC4CC(C3)CC2C4)c1=O (stereo partly shown) [III-29] . Return the value.
Reply text: 25 to 250 nM

Inquiry: Request body: readout IC50, system recombinant human transglutaminase 2 (Homo sapiens), query COC(=O)/C=C/CC[C@H](NC(=O)c1oc2ccccc2c1C)C(=O)Nc1cccn(CC(=O)NC23CCC(CC2)C3)c1=O [III-64] . Return the value.
Reply text: < 25 nM

Inquiry: Request body: readout IC50, system recombinant human transglutaminase 2 (Homo sapiens), query COC(=O)/C=C/CC[C@H](NC(=O)c1nc[nH]n1)C(=O)Nc1cccn(CC(=O)NC2C3CC4CC(C3)CC2C4)c1=O (stereo partly shown) [III-104] . Return the value.
Reply text: 25 to 250 nM

Inquiry: Request body: readout IC50, system recombinant human transglutaminase 2 (Homo sapiens), query COC(=O)/C=C/CC[C@H](NC(=O)c1oc2ccccc2c1C)C(=O)Nc1cccn(CC(=O)N[C@H]2C[C@H]3C[C@@H]([C@@H]2C)C3(C)C)c1=O [III-70] . Return the value.
Reply text: < 25 nM

Inquiry: Request body: readout IC50, system recombinant human transglutaminase 2 (Homo sapiens), query COC(=O)/C=C/CC[C@H](NC(=O)c1cc(Br)sc1Br)C(=O)Nc1cccn(CC(=O)NC2C3CC4CC(C3)CC2C4)c1=O (stereo partly shown) [III-16] . Return the value.
Reply text: < 25 nM

Inquiry: Request body: readout IC50, system recombinant human transglutaminase 2 (Homo sapiens), query COC(=O)/C=C/CC[C@H](NC(=O)c1cncc(C(=O)O)c1)C(=O)Nc1cccn(CC(=O)NC2C3CC4CC(C3)CC2C4)c1=O (stereo partly shown) [III-35] . Return the value.
Reply text: < 25 nM

Inquiry: Request body: readout IC50, system recombinant human transglutaminase 2 (Homo sapiens), query COC(=O)/C=C/CC[C@H](NC(=O)c1cc(Cl)sc1Cl)C(=O)Nc1cccn(CC(=O)N[C@H]2C[C@H]3CC[C@]2(C)C3(C)C)c1=O [III-128] . Return the value.
Reply text: < 25 nM

Inquiry: Request body: readout IC50, system recombinant human transglutaminase 2 (Homo sapiens), query COC(=O)/C=C/CC[C@H](NC(=O)C1CN2CCC1CC2)C(=O)Nc1cccn(CC(=O)NC2C3CC4CC(C3)CC2C4)c1=O (stereo partly shown) [III-32] . Return the value.
Reply text: 25 to 250 nM
